Hello, the source for this data is paper PMC4309560, in case you need it.

Assignment: determine reported pIC50 for the given molecules.
- Tested on: Human FXIa (Homo sapiens)
- Sequence (P03951 388-625): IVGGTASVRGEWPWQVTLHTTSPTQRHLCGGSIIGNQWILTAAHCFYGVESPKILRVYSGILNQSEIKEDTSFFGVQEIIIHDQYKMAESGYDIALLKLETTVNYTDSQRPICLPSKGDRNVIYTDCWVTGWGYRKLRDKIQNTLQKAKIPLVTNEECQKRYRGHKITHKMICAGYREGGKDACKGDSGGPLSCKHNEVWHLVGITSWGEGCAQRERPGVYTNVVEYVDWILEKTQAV
- Sequence (P03951 19-387): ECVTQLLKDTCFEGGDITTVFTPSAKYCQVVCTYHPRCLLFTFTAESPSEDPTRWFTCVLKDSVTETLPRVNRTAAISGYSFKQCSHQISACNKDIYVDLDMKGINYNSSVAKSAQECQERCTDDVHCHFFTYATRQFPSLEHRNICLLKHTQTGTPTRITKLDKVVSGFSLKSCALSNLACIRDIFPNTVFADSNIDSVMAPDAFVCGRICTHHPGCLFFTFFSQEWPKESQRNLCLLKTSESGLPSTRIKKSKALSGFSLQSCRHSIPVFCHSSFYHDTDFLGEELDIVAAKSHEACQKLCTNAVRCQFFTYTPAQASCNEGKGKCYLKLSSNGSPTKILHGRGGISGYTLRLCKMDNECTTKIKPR
Formally, pIC50 is defined as -log10 of the concentration c, with c in mol/L.

Provide only the value of recorded pIC50 for N=C(N)c1ccc2cc(C(=O)Nc3cccc(OCCOCCN)c3)cc(Nc3ncccn3)c2c1 [Compound 4, reference compound]
6.62

Provide only the value of recorded pIC50 for CN(Cc1cc(=O)[nH]c2ccc(Cl)cc12)C(=O)[C@H](Cc1ccccc1)N(C)C(=O)c1ccc2[nH]c(=O)cc(O)c2c1
5.77

Provide only the value of recorded pIC50 for Cc1cc(N)nc2ccccc12
3.62

Provide only the value of recorded pIC50 for O=c1ccc2cc(Cl)ccc2[nH]1
3.85

Provide only the value of recorded pIC50 for CCCS(=O)(=O)N[C@@H](C(=O)N[C@@H](CC(C)C)C(=O)NCc1ccc(C(=N)N)cc1)C1CCCCC1 [Compound 2, reference compound]
6.96

Provide only the value of recorded pIC50 for COC(=O)Nc1ccc(-c2nc(CNC(=O)CCc3cc(Cl)ccc3-n3cnnn3)[nH]c2Cl)cc1 [Compound 11, reference compound]
6.80

Provide only the value of recorded pIC50 for Cc1c(-c2ccccc2)n[nH]c1C(=O)N(C)Cc1cc(=O)[nH]c2ccccc12
4.00

Provide only the value of recorded pIC50 for CC(=O)N[C@@H](Cc1ccccc1)C(=O)NCc1cc(=O)[nH]c2ccc(Cl)cc12
4.48

Provide only the value of recorded pIC50 for N=C(N)c1ccccc1 [Compound 7, benzamidine, reference compound]
3.21

Provide only the value of recorded pIC50 for Cc1c(-c2ccccc2)n[nH]c1C(=O)N(C)Cc1cc(=O)[nH]c2ccc(Cl)cc12
6.09
